- System Tested: hCE1 (Homo sapiens, UniProt P23141)
- Sequence (P23141 18-563 limits assumed): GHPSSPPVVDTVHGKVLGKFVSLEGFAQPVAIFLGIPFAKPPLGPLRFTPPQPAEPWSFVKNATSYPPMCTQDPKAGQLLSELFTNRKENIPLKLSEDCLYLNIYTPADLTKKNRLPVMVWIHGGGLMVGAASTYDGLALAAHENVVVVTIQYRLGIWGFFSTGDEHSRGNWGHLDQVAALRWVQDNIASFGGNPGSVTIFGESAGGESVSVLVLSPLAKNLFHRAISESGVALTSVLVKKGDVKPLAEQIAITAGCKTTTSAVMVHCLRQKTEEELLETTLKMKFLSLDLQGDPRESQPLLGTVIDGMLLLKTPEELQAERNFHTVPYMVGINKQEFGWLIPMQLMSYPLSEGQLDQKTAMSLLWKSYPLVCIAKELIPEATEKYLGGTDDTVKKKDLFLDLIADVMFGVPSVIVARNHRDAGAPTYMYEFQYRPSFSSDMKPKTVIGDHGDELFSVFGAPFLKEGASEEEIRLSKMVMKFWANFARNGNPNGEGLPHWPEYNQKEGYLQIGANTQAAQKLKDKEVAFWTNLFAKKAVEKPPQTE
- Format: biochemical
- Condition Details: after pre-incubation and removal of the small molecule
Metric: Irreversibility of hCE1 inhibition

>  <Smiles Notation>
Cc1cccc2c1ccc1c3c(c(=O)oc(=O)c12)[C@@H](C)CO3

>  <Result>
irreversible inhibition

$$$$
>  <Smiles Notation>
Cc1coc2c1c(=O)oc(=O)c1c3c(ccc12)C(C)(C)CCC3

>  <Result>
irreversible inhibition

$$$$
>  <Smiles Notation>
C[C@H]1COc2c1c(=O)oc(=O)c1c3c(ccc21)C(C)(C)CCC3

>  <Result>
irreversible inhibition

$$$$
>  <Smiles Notation>
Cc1cccc2c1ccc1c3occ(C)c3c(=O)oc(=O)c21

>  <Result>
irreversible inhibition

$$$$

====

- System Tested: hiCE (human intestinal CE; CES2) (Homo sapiens, UniProt O00748)
- Sequence (O00748 27-555 limits assumed): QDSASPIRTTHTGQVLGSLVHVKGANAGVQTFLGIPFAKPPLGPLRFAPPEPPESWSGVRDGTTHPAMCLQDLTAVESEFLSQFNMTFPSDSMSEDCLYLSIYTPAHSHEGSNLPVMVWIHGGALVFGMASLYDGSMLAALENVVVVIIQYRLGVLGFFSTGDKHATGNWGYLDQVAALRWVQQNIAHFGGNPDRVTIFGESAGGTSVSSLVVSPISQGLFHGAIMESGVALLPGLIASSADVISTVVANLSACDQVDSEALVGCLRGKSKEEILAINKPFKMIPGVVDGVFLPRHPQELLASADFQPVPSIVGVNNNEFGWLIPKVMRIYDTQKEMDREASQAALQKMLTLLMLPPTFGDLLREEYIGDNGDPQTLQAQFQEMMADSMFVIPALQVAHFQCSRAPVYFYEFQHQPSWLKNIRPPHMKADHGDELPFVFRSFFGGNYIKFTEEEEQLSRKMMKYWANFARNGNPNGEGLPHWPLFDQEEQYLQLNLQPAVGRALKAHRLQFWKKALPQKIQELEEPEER
- Test Protocol: Inhibition of hiCE with o-NPA as substrate, spectrophotometric assay
- Type: biochemical
- Condition Details: compared to the parent tanshinone
Metric: hiCE (o-NPA) Fold increase in potency (fold)
Return type: number; implicit unit fold.

>  <Molecule>
C[C@H]1COc2c1c(=O)oc(=O)c1c3c(ccc21)C(C)(C)CCC3 [Compound 8]

>  <System Tested>
hiCE (human intestinal CE; CES2) (Homo sapiens, UniProt O00748)

>  <Metric>
hiCE (o-NPA) Fold increase in potency

>  <Quantitative Result>
188

$$$$

hiCE (o-NPA) Fold increase in potency for Cc1cccc2c1ccc1c3c(c(=O)oc(=O)c12)[C@@H](C)CO3 [Compound 6] is 193

====

- System Tested: hBChE (Homo sapiens, UniProt P06276)
- Sequence (P06276 29-602): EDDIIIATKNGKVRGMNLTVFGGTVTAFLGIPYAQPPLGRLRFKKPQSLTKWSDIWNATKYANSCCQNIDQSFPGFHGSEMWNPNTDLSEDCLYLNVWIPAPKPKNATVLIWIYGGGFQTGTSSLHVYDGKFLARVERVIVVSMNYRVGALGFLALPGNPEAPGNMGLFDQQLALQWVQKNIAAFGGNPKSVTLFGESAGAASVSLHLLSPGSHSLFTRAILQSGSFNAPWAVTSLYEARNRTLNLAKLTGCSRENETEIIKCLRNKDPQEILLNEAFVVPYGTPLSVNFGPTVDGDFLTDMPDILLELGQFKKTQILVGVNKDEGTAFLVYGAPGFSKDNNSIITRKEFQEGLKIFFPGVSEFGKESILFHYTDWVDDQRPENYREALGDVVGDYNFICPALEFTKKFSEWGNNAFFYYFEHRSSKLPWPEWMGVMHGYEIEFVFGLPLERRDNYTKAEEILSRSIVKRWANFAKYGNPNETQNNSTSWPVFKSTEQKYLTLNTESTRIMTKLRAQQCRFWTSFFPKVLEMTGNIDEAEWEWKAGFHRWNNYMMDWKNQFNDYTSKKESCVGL
- Test Protocol: Inhibition of human butyrylcholinesterase with butyrylthiocholine
- Type: biochemical
# IC50 per entry

Answered examples (2):
>  <Molecule>
Cc1coc2c1C(=O)C(=O)c1c-2ccc2c(C)cccc12 [Compound 1, Tanshinone I]

>  <IC50>
> 10 µM

$$$$
>  <Molecule>
C[C@H]1COC2=C1C(=O)C(=O)c1c2ccc2c1CCCC2(C)C [Compound 7, Crypto-tanshinone]

>  <IC50>
> 10 µM

$$$$

Here is another molecule to look at.
Record Cc1coc2c1C(=O)C(=O)c1c-2ccc2c1CCCC2(C)C [Compound 3, Tanshinone IIA] . Reported IC50: > 10 µM

====

- System Tested: UniProt:P23141
- Test Protocol: Inhibition of hCE1 with o-nitrophenyl acetate
- Format: biochemical
- Condition Details: compared to the parent tanshinone
Metric: hCE1 (o-NPA) Fold increase in potency (fold)
Your answer should be a plain number; it is taken to be in fold.

>  <Molecule>
Cc1cccc2c1ccc1c3c(c(=O)oc(=O)c12)[C@@H](C)CO3 [Compound 6]

>  <Value Unit>
fold

>  <Quantitative Result>
111

$$$$

# next molecule below
Form field hCE1 (o-NPA) Fold increase in potency for item C[C@H]1COc2c1c(=O)oc(=O)c1c3c(ccc21)C(C)(C)CCC3 [Compound 8] on UniProt:P23141: 194
